Molecular target: T1, ZFP SBS#1058 (synthetic)
T1 chain: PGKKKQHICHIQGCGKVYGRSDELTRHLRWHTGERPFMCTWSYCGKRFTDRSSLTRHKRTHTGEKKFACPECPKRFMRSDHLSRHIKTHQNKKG
Test: EMSA
Settings: tags: MBP fusion
MEASURE NAME: Kd (nM)

GGGGCCGCG (dsDNA) DNA 1: GGGGCCGCG DNA 2: CGCGGCCCC : 6.28
